In this section, each of the molecules is paired with its reported hEphA7-SEAP-: absorbance at 450 nm, percentage with respect to hEphA4-SEAP-His as 100%.
- Tested System: T1, human EphA7 (Homo sapiens, UniProt Q15375)
- T1 construct: a protein of the extracellular region of each human Eph receptor fused with the SEAP protein and the His tag; made in house; host or cells: Expi293F cells (culture supernatant)
- T1 sequence (Q15375 28-555 limits assumed): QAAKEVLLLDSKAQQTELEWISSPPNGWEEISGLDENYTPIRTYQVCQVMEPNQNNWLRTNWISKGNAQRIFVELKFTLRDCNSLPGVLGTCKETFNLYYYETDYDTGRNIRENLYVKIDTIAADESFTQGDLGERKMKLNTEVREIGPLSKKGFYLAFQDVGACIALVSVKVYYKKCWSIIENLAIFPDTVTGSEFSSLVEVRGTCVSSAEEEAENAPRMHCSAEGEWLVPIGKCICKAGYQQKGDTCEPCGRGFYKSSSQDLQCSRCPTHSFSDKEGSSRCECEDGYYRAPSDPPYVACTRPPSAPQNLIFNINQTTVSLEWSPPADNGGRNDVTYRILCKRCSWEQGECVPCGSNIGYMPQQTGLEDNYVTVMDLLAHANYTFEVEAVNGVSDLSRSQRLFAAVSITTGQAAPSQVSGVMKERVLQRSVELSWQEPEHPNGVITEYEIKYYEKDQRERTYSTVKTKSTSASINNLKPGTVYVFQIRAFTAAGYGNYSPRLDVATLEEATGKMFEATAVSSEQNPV
- Test Protocol: Selectivity ELISA of humanized antibodies for human Eph receptor
- Format: binding
- Condition: coated protein 1 nM
Quick reminder: number only, in %, skip the unit.

>>> number("151 (antibody, V domains shown, synthetic humanized antibody heavy chain variable region sequence; synthetic humanized antibody light chain variable region sequence) VH: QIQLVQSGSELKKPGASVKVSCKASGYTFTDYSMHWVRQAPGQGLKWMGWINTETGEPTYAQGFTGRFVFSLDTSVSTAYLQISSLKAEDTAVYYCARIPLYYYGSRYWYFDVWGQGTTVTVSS VL: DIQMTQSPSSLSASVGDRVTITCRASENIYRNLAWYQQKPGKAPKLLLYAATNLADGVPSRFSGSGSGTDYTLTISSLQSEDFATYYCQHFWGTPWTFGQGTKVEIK")
6.8

Asked: Query (molecule): 83 (antibody, V domains shown, constant regions without entry; synthetic humanized antibody light chain variable region sequence; synthetic humanized antibody heavy chain variable region sequence) VL: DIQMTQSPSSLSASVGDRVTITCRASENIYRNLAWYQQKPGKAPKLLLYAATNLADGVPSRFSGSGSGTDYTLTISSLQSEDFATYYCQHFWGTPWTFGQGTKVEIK VH: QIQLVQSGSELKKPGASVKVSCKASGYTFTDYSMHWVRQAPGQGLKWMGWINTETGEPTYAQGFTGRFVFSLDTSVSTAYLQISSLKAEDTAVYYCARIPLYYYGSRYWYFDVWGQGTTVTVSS ; field requested: hEphA7-SEAP-: absorbance at 450 nm, percentage with respect to hEphA4-SEAP-His as 100%
Given back: 5.5
